As shown below, each of these compounds has a reported LD50 at 168 h value.
Assay name: Acute toxicity in mice
Assay context: mouse, in vivo, po
Recorded endpoint: LD50 at 168 h (mg/kg)

# Structure smiles string, Recorded endpoint, Qualifier operator, Endpoint result
data = [
    ("C=Cn1cc(C(=O)O)c(=O)c2ccc(N3CCN(C)CC3)cc21", "LD50 at 168 h", ">", 2000),
    ("CCn1cc(C(=O)O)c(=O)c2ccc(N3CCNCC3)cc21", "LD50 at 168 h", "=", 2000),
    ("C=Cn1cc(C(=O)O)c(=O)c2ccc(N3CCNCC3)nc21", "LD50 at 168 h", ">", 2000),
    ("CCn1cc(C(=O)O)c(=O)c2ccc(N3CCN(C)CC3)cc21", "LD50 at 168 h", "=", 2000),
    ("C=Cn1cc(C(=O)O)c(=O)c2ccc(N3CCN(CC)CC3)cc21", "LD50 at 168 h", ">", 2000),
]

----------
Test system: Escherichia coli K-12
Assay name: In vitro antibacterial activity (MIC, serial dilution), Escherichia coli
Assay context: nutrient broth, pH 7.0; 37° C for 48 hours
As shown below, each of these compounds has a reported minimum inhibitory concentration (MIC), Escherichia coli K-12 value.
Recorded endpoint: minimum inhibitory concentration (MIC), Escherichia coli K-12

# Compound, Endpoint result
measured = [
    ("CCn1cc(C(=O)O)c(=O)c2cnc(N3CCNCC3)cc21", 3),
    ("C=Cn1cc(C(=O)O)c(=O)c2ccc(N3CCN(CC)CC3)cc21", 1),
    ("CCn1cc(C(=O)O)c(=O)c2ccc(N3CCN(C)CC3)nc21", 1),
    ("CN1CCN(c2ccc3c(=O)c(C(=O)O)cn(Cc4ccccc4)c3c2)CC1", 1),
    ("C=Cn1cc(C(=O)O)c(=O)c2ccc(N3CCN(C)CC3)cc21", 1),
    ("C=Cn1cc(C(=O)O)c(=O)c2ccc(N3CCN(C)CC3)nc21", 1),
    ("CCn1cc(C(=O)O)c(=O)c2ccc(N(C)C)nc21", 1),
    ("CCn1cc(C(=O)O)c(=O)c2cnc(N3CCCC3)nc21 [PA, reference compound]", 1),
]

----------
Assay name: Acute toxicity in mice
Assay context: mouse, in vivo, iv
As shown below, each of these compounds has a reported LD50 at 168 h value.
Recorded endpoint: LD50 at 168 h

# Structure smiles string, Recorded endpoint, Endpoint result
data = [
    ("CCn1cc(C(=O)O)c(=O)c2ccc(N3CCNCC3)cc21", "LD50 at 168 h", "> 500 mg/kg"),
    ("C=Cn1cc(C(=O)O)c(=O)c2ccc(N3CCNCC3)nc21", "LD50 at 168 h", "354 mg/kg"),
    ("CCn1cc(C(=O)O)c(=O)c2ccc(N3CCNCC3)nc21", "LD50 at 168 h", "> 500 mg/kg"),
    ("CCn1cc(C(=O)O)c(=O)c2cnc(N3CCN(C)CC3)cc21", "LD50 at 168 h", "> 500 mg/kg"),
]
